Overview of reported pKd across a group of binders:
# TEST TARGET: T1, EsCas13d, nuclease-dead (Eubacterium siraeum, UniProt B0MS50, R295A;H300A;R849A;H854A)
# T1 sequence: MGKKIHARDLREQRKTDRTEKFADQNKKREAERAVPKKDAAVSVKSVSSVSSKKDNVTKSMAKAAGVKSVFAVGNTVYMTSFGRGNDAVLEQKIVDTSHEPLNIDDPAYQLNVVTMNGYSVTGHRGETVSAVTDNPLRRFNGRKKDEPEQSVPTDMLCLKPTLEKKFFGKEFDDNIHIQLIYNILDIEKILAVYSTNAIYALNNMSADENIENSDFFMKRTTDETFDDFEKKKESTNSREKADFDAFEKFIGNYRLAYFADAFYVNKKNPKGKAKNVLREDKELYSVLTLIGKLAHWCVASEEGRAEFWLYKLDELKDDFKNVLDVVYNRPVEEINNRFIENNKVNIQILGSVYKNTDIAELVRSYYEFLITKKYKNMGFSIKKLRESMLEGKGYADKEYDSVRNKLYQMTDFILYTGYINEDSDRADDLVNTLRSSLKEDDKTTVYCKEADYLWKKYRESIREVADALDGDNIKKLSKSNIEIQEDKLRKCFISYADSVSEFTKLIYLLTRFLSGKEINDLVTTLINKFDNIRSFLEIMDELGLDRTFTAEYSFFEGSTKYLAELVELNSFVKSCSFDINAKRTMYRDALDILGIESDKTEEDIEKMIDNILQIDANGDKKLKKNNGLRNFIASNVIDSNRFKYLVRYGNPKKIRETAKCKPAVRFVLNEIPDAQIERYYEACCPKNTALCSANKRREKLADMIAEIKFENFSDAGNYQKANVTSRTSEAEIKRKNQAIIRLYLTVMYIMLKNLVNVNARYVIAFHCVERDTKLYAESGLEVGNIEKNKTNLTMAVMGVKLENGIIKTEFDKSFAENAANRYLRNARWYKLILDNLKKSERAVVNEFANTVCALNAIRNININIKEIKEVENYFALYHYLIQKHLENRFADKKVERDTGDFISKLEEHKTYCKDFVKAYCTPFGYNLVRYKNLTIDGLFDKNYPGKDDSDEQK
# MEASUREMENT DESCRIPTION: crRNA (strand 1, pre-loaded); Mg2+; 40 mM Tris-HCl pH 7.5, 150 mM NaCl, 6 mM MgCl2, 1 mM DTT, 0.1% Tween-20, 0.2 mg/ml BSA; 25 C; 10 min per concentration, then washed
# STUDY CONDITIONS: tags: His6-TwinStrep-SUMO cleaved; N-terminal SNAP kept (SNAP-Surface 488); label: 3' end held by stalled T7 RNA polymerase
pKd: −log10 of the molar value.
EXPERIMENTAL ENDPOINT: pKd

target 1 insC 3' of 15,insC 3' of 13 (mixed) RNA 1: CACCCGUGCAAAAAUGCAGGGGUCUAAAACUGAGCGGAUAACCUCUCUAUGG RNA 2: GGGAAUGGAUCCACAUCUACGAAUUCGUACCAUAGAGCAGCGUUAUCCGCUCACCGAGAUCGGAAGAGCACACGU
7.47
target 1 MT 5'PFS GCA 3'PFS AUU (mixed) RNA 1: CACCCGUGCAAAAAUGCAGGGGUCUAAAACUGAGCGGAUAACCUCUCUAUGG RNA 2: GGGAAUGGAUCCACAUCUACGAAUUCGCACCAUAGAGAGGUUAUCCGCUCAAUUAGAUCGGAAGAGCACACGU
7.81
target 1 insC 3' of 15,insU 3' of 4 (mixed) RNA 1: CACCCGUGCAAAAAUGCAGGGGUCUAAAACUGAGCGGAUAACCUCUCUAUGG RNA 2: GGGAAUGGAUCCACAUCUACGAAUUCGUACCAUAGAGCAGGUUAUCCGCUUCACCGAGAUCGGAAGAGCACACGU
7.84
target 2 MT 5'PFS GUG 3'PFS CAU (mixed) RNA 1: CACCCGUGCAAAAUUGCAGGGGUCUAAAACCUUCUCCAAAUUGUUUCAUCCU RNA 2: GGGAAUGGAUCCACAUCUACGAAUUCGUGAGGAUGAAACAAUUUGGAGAAGCAUAGAUCGGAAGAGCACACGU
8.04
